# run description: Total clearance in rat at 1 mg/kg, iv
# Type: ADME, organism-based
# condition details: in vivo
measured parameter: clearance (mL/min/kg)
Write the value in mL/min/kg as a bare number.

For Cc1cc(C(=O)O)nn1Cc1cc(Cl)cc2cc(-c3ccccc3)nn12 the compound record lists clearance as 2.59

* * *

# measurement target: Prostaglandin E2 receptor EP1 subtype (Rattus norvegicus)
# Sequence (P70597 whole entry): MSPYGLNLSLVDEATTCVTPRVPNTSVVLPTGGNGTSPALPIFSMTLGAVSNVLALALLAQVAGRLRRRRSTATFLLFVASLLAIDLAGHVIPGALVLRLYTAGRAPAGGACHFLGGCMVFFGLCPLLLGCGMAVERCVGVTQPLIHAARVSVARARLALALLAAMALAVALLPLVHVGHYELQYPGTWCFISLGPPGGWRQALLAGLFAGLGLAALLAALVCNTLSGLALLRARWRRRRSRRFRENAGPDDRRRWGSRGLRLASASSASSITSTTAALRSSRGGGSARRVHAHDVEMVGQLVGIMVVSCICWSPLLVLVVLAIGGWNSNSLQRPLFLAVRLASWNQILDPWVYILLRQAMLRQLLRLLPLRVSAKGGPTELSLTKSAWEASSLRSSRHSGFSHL
# run description: Antagonist activity at rat EP1 receptor expressed in African green monkey COS1 cells assessed as decrease in prostaglandin E2-induced increase in intracellular calcium level incubated for 90 mins measured for 60 secs by Fluo 4-AM dye based fluorescence assay
// reported log10 IC50 for each item listed
Short version: log10 scale, IC50, nM.

Completed entries (count: 5):
# smiles string, log10 IC50
data = [
    ("Cc1cc(Cn2nc(C(=O)O)cc2C)n2nc(-c3ccccc3)cc2c1", 2.65),
    ("Cc1cc(C(=O)O)nn1Cc1cc(Cl)cc2cc(CC(C)C)nn12", 3.15),
    ("COc1cccc(-c2cc3cc(Cl)cc(Cn4nc(C(=O)O)cc4C)n3n2)c1", 2.04),
    ("Cc1cc(C(=O)O)nn1Cc1cc(Cl)cc2cc(-c3ccccc3)oc12", 1.34),
    ("CC(C)Cc1cc(C(=O)O)nn1Cc1cc(Cl)cc2cc(-c3ccccc3)nn12", 3.30),
]

For Cc1cc(C(=O)O)nn1Cc1cc(Cl)cc2cc(-c3cccc(Cl)c3)nn12 the molecule record lists log10 IC50 as 2.18

For Cc1cc(C(=O)O)nn1Cc1cc(Cl)cc2cc(-c3ccccc3Cl)nn12 the molecule record lists log10 IC50 as 2.34

For COc1ccc2cc(-c3ccccc3)nn2c1Cn1nc(C(=O)O)cc1C the molecule record lists log10 IC50 as 3.18

For CC(C)c1cc(C(=O)O)nn1Cc1cc(Cl)cc2cc(-c3ccccc3)nn12 the molecule record lists log10 IC50 as 3.08

For CCc1cc(C(=O)O)nn1Cc1cc(Cl)cc2cc(-c3ccccc3)nn12 the molecule record lists log10 IC50 as 2.48
